# TARGET OF ASSAY: Protein ENL (Homo sapiens, UniProt Q03111)
# Sequence (Q03111 whole entry): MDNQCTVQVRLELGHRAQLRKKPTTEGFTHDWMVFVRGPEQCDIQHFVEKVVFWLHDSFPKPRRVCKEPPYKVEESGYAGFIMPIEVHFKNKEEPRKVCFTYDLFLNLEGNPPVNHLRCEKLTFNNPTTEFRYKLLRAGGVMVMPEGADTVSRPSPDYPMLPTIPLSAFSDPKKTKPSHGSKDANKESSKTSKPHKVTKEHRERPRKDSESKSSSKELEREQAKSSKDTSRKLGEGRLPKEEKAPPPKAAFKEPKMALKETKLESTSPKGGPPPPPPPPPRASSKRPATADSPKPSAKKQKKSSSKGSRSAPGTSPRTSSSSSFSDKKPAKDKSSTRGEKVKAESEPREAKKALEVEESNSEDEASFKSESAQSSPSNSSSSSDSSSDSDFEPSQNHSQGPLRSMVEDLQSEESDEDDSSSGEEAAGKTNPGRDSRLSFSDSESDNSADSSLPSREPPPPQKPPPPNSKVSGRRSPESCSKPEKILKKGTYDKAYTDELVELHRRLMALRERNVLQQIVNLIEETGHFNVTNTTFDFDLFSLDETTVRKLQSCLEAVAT
# ASSAY NAME: Inhibition of human His-ENL YEATS domain and biotinylated H3K9ac peptide interaction by AlphaScreen assay
pIC50: −log10 of the molar value.
EXPERIMENTAL READOUT: pIC50

Please review the following examples before continuing.
Query the reported pIC50 for Protein ENL (Homo sapiens, UniProt Q03111); item: `O=C(NCc1ccc(CN2CCCCC2)cc1)c1ccc2nncn2c1` 6.20

Query the reported pIC50 for Protein ENL (Homo sapiens, UniProt Q03111); item: `O=C(NCc1ccc(CN2CCC2)cc1)c1ccn2cnnc2c1` < 5.30

Query the reported pIC50 for Protein ENL (Homo sapiens, UniProt Q03111); item: `O=C(NCc1ccc(CN2CCC2)cc1)c1ccc2ncnn2c1` < 5.30

Others:
Query the reported pIC50 for Protein ENL (Homo sapiens, UniProt Q03111); item: `O=C(NCc1ccc(CNc2nc(F)ccc2F)cc1)c1ccc2nncn2c1` < 5.70

---

# TARGET OF ASSAY: YEATS domain-containing protein 2 (Homo sapiens, UniProt Q9ULM3)
# Sequence (Q9ULM3 whole entry, the tested form may be a part): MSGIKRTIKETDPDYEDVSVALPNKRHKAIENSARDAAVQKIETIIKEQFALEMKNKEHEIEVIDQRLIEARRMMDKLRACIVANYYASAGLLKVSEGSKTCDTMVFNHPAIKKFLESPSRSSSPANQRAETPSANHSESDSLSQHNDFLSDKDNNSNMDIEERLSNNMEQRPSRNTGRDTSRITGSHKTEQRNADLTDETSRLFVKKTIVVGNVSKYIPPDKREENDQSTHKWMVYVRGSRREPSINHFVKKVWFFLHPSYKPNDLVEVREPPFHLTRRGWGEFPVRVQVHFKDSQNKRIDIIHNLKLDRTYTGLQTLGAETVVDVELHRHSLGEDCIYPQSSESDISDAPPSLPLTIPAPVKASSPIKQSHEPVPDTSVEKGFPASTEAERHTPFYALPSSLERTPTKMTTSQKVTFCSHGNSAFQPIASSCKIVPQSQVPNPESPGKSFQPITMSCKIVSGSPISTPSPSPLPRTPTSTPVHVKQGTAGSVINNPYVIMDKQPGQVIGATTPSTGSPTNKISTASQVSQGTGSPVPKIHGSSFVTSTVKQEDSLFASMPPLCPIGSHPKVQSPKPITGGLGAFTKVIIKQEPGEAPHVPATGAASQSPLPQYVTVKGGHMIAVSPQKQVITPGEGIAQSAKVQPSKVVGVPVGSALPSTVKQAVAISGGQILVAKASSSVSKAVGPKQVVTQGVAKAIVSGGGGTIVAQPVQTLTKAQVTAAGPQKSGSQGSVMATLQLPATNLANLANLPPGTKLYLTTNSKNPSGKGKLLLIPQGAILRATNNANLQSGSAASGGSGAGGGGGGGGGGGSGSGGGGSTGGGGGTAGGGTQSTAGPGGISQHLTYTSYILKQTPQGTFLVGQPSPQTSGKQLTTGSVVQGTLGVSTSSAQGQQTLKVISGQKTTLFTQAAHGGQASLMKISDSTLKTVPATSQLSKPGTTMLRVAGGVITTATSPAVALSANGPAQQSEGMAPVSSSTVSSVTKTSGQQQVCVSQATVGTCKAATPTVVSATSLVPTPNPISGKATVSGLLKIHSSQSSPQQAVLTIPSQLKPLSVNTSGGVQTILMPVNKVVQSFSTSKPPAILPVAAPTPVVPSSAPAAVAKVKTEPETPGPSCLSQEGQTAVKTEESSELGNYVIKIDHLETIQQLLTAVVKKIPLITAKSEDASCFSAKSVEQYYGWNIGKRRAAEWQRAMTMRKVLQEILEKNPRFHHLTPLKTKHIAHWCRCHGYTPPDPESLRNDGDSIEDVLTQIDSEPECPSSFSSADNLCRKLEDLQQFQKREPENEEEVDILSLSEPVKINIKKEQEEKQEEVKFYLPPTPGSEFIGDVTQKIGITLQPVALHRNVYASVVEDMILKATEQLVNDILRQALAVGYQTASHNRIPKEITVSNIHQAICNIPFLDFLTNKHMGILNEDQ
# ASSAY NAME: Inhibition of human His-YEATS2 YEATS domain and biotinylated […] peptide interaction by AlphaScreen assay
Would you mind telling me the reported IC50 of each entry?

Query the reported IC50 for YEATS domain-containing protein 2 (Homo sapiens, UniProt Q9ULM3); item: `O=C(NCc1ccc(CNc2ncc(F)cn2)cc1)c1ccc2nncn2c1` > 54 µM

Here are 3 molecules. What values of IC50 were reported for them?
1. O=C(NCc1ccc(CN2CCC2)cc1)c1ccc2nncn2c1
2. CN(C)Cc1ccc(CNC(=O)c2ccc3nncn3c2)cc1
3. CSc1ccc(CNC(=O)c2ccc3nncn3c2)cc1

18.5 µM
> 54 µM
> 54 µM

---

# TARGET OF ASSAY: Protein ENL (Homo sapiens, UniProt Q03111)
# Sequence (Q03111 whole entry): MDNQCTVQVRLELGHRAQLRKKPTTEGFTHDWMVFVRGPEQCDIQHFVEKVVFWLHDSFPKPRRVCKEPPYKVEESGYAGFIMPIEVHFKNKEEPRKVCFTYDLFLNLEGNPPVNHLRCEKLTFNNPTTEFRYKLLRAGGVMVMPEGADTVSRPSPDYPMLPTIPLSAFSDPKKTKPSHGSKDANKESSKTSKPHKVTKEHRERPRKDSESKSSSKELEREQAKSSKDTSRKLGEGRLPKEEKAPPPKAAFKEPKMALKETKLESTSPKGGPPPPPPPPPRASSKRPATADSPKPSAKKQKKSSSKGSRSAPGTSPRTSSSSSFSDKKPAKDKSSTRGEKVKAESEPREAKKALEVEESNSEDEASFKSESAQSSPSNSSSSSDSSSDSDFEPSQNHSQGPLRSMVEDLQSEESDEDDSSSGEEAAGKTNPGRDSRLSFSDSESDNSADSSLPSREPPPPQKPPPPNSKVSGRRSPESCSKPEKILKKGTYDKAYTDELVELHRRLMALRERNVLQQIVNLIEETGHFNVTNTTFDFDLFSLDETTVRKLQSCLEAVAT
# ASSAY NAME: Inhibition of human His-ENL YEATS domain and biotinylated H3K9ac peptide interaction by AlphaScreen assay
Lab note - cut at 300 nM for IC50: Condition met if strictly below, Condition not met if not.

Check out these entries, answers already filled in.
Hello, is IC50 of the following compound strictly smaller than 300 nM? CC(C)(C)C1CCN1Cc1ccc(CNC(=O)c2ccc3nncn3c2)cc1 (stereo unspecified) Condition met

Hello, is IC50 of the following compound strictly smaller than 300 nM? `CN(C)Cc1ccc(CNC(=O)c2ccc3nncn3c2)cc1` Condition not met

Hello, is IC50 of the following compound strictly smaller than 300 nM? `Cc1cc2ncc(C(=O)NCc3ccc(CN4CCC4)cc3)cn2n1` Condition not met

Hello, is IC50 of the following compound strictly smaller than 300 nM? `CSc1ccc(CNC(=O)c2ccc3nncn3c2)cc1` Condition met

Others:
Hello, is IC50 of the following compound strictly smaller than 300 nM? `O=C(NCc1ccc(CN2CCOCC2)cc1)c1ccc2nncn2c1` Condition not met

Hello, is IC50 of the following compound strictly smaller than 300 nM? `O=C(NCc1ccc(CNc2ccc(F)cn2)cc1)c1ccc2nncn2c1` Condition not met

Hello, is IC50 of the following compound strictly smaller than 300 nM? CC(C)C1CCN1Cc1ccc(CNC(=O)c2ccc3nncn3c2)cc1 (stereo unspecified) Condition met

---

Would you mind telling me the reported IC50 of each entry?
# TARGET OF ASSAY: Protein ENL (Homo sapiens, UniProt Q03111)
# ASSAY NAME: Inhibition of human His-ENL YEATS domain and biotinylated H3K9ac peptide interaction by AlphaScreen assay
Answers are plain numbers, in µM.

Query the reported IC50 for Protein ENL (Homo sapiens, UniProt Q03111); item: CC1CCN1Cc1ccc(CNC(=O)c2ccc3nncn3c2)cc1 (centres undefined) 0.185

Consider the record given below.
Query the reported IC50 for Protein ENL (Homo sapiens, UniProt Q03111); item: `O=C(NCc1cccc(CN2CCC2)c1)c1ccc2nncn2c1` 0.202
